Target: the molecule itself
Assay: native mass spectrometry; monomer-dimer equilibrium of the hinge-less CH2-CH3 fragment (homodimer)
valueKind: pKd
Note: pKd values are expressed as the negative base-10 logarithm of concentration in M.

Worked cases, answers included:
Need pKd of CH2-CH3 fragment of human IgG4 with K370E (other, UniProt P01861-1 221-327, looked up, name in EU numbering, range 341-447; As m7, with the mutation; also called G4-K370E; not shown: N-terminal 6 amino acid His tag) GQPREPQVYTLPPSQEEMTKNQVSLTCLVEGFYPSDIAVEWESNGQPENNYKTTPPVLDSDGSFFLYSRLTVDKSRWQEGNVFSCSVMHEALHNHYTQKSLSLSLGK , thanks.
8.70

Let us now turn to CH2-CH3 fragment of human IgG4 with E357T (other, UniProt P01861-1 221-327, looked up, name in EU numbering, range 341-447; As m7, with the mutation; also called G4-E357T; not shown: N-terminal 6 amino acid His tag) GQPREPQVYTLPPSQETMTKNQVSLTCLVKGFYPSDIAVEWESNGQPENNYKTTPPVLDSDGSFFLYSRLTVDKSRWQEGNVFSCSVMHEALHNHYTQKSLSLSLGK
4.39

Ok, now CH2-CH3 fragment of human IgG4 with L351K (other, UniProt P01861-1 221-327, looked up, name in EU numbering, range 341-447; As m7, with the mutation; also called G4-L351K; not shown: N-terminal 6 amino acid His tag) GQPREPQVYTKPPSQEEMTKNQVSLTCLVKGFYPSDIAVEWESNGQPENNYKTTPPVLDSDGSFFLYSRLTVDKSRWQEGNVFSCSVMHEALHNHYTQKSLSLSLGK
6.13

Entry CH2-CH3 fragment of human IgG4 with R409L (other, UniProt P01861-1 221-327, looked up, name in EU numbering, range 341-447; As m7, with the mutation; also called G4-R409L; not shown: N-terminal 6 amino acid His tag) GQPREPQVYTLPPSQEEMTKNQVSLTCLVKGFYPSDIAVEWESNGQPENNYKTTPPVLDSDGSFFLYSLLTVDKSRWQEGNVFSCSVMHEALHNHYTQKSLSLSLGK please
7.82

Quick one: CH2-CH3 fragment of human IgG4 with R409M (other, UniProt P01861-1 221-327, looked up, name in EU numbering, range 341-447; As m7, with the mutation; also called G4-R409M; not shown: N-terminal 6 amino acid His tag) GQPREPQVYTLPPSQEEMTKNQVSLTCLVKGFYPSDIAVEWESNGQPENNYKTTPPVLDSDGSFFLYSMLTVDKSRWQEGNVFSCSVMHEALHNHYTQKSLSLSLGK
8.52

Thanks! And CH2-CH3 fragment of human IgG4 with R409K (other, UniProt P01861-1 221-327, looked up, name in EU numbering, range 341-447; As m7, with the mutation; also called G4-R409K; not shown: N-terminal 6 amino acid His tag) GQPREPQVYTLPPSQEEMTKNQVSLTCLVKGFYPSDIAVEWESNGQPENNYKTTPPVLDSDGSFFLYSKLTVDKSRWQEGNVFSCSVMHEALHNHYTQKSLSLSLGK ?
8.10

// same read-out, input: CH2-CH3 fragment of human IgG1 with T350I-K370T-F405L (other, UniProt P01857-1 224-330, looked up, name in EU numbering, range 341-447; also called G1-ITL; not shown: N-terminal 6 amino acid His tag) GQPREPQVYILPPSRDELTKNQVSLTCLVTGFYPSDIAVEWESNGQPENNYKTTPPVLDSDGSFLLYSKLTVDKSRWQQGNVFSCSVMHEALHNHYTQKSLSLSPGK
6.00

Now take the following protein into account.
# query: pKd of entry CH2-CH3 fragment of human IgG4 with K370Q (other, UniProt P01861-1 221-327, looked up, name in EU numbering, range 341-447; As m7, with the mutation; also called G4-K370Q; not shown: N-terminal 6 amino acid His tag) GQPREPQVYTLPPSQEEMTKNQVSLTCLVQGFYPSDIAVEWESNGQPENNYKTTPPVLDSDGSFFLYSRLTVDKSRWQEGNVFSCSVMHEALHNHYTQKSLSLSLGK
7.96
